Please use t for glass transition temperature under 200 °C and f for everything else, ties included.

Would you please look over these solved cases?
- Compound: "*c1cc(C)c(/N=C/c2ccc(OCc3ccccc3COc3ccc(/C=N/c4cc(C)c(N5C(=O)c6ccc7c8ccc9c%10c(ccc(c%11ccc(c6c7%11)C5=O)c%108)C(=O)N(*)C9=O)cc4C)cc3)cc2)cc1C (repeat unit)"
  Classification: "t"
- Compound: "*O[Si](C)(C)c1c(F)c(F)c(F)c([Si](*)(C)C)c1F (repeat unit)"
  Classification: "t"

Task: Take the compound *c1cccc(Oc2cccc(Oc3cccc(N4C(=O)c5ccc(-c6cccc7c6C(=O)N(*)C7=O)cc5C4=O)c3)c2)c1 (repeat unit) and say whether its glass transition temperature is less than 200 °C.
Result: f

Task: Take the compound *Oc1cccc(NC(=O)c2ccc(C(=O)c3cccc(C(=O)Nc4ccc(*)cc4)c3)cc2)c1 (repeat unit) and say whether its glass transition temperature is less than 200 °C.
Result: f

---

Classification field: YES = glass transition temperature at or over 40 °C; NO = glass transition temperature under 40 °C.

- Compound: "*CC(*)(C)C(=O)Nc1cccc(-c2nnc(-c3ccccc3)o2)c1 (repeat unit)"
  Classification: "YES"
- Compound: "*c1cccc(-c2cccc(C(F)(F)C(F)(F)C(*)(F)F)c2)c1 (repeat unit)"
  Classification: "YES"
- Compound: "*CC(*)(C)C(=O)OCCOCCOCC[N+](CC)(CC)CCCCS(=O)(=O)O (repeat unit)"
  Classification: "NO"
- Compound: "*NNC(=O)/C=C/C(=O)NCCCCCCNC(=O)/C=C/C(*)=O (repeat unit)"
  Classification: "YES"

Please find the next compound below.
Task: Please tell me: is the compound *OC(F)(F)C(*)(F)F (repeat unit) at or over 40 °C in terms of glass transition temperature?
Result: NO

---

Recorded glass transition temperature by entry
Give the value, in units of °C, as a plain number.

Example cases with answers are listed next.
- Compound: "*CC(*)c1ccc(COCCC(F)(F)C(F)(F)C(F)(F)C(F)(F)C(F)(F)C(F)(F)F)cc1 (repeat unit)"
  Quantitative readout: 18.00
- Compound: "*CCCCCCCCCCCCN1C(=O)c2ccc(Oc3ccc4c(c3)C(=O)N(*)C4=O)cc2C1=O (repeat unit)"
  Quantitative readout: 70.00
- Compound: "*c1ccc(Sc2ccc(Sc3ccc(Sc4ccc(Sc5ccc(N6C(=O)c7ccc(Oc8ccc9c(c8)C(=O)N(*)C9=O)cc7C6=O)cc5)s4)s3)s2)cc1 (repeat unit)"
  Quantitative readout: 158.50
- Compound: "*c1ccc(Oc2ccc(S(=O)(=O)c3ccc(C)cc3)cc2)c(N2C(=O)c3ccc(-c4ccc5c(c4)C(=O)N(*)C5=O)cc3C2=O)c1 (repeat unit)"
  Quantitative readout: 281.00
- Compound: "*/C=C/c1ccc2c3ccc(*)cc3n(-c3ccc(OCCCCCCCCCC)c(OCCCCCCCCCC)c3)c2c1 (repeat unit)"
  Quantitative readout: 95.00
- Compound: "*c1ccc(Oc2ccc(C(=O)c3cccc(C(=O)c4ccc(Oc5ccc(-c6nc7ccccc7n6-c6ccc(-n7c(*)nc8ccccc87)cc6)cc5)cc4)c3)cc2)cc1 (repeat unit)"
  Quantitative readout: 219.00

Task: Input *N=P(*)(CC)c1ccccc1 (repeat unit) , output reported glass transition temperature.
Result: 20.00

Task: Input *c1cccc(N2C(=O)c3cccc(Oc4ccc(C(=O)c5ccc(Oc6cccc7c6C(=O)N(*)C7=O)cc5)cc4)c3C2=O)c1 (repeat unit) , output reported glass transition temperature.
Result: 248.00

Task: Input *OP(=O)(Oc1ccc(NC(=O)OCCCCCCOC(=O)Nc2ccc(*)cc2)cc1)c1ccccc1 (repeat unit) , output reported glass transition temperature.
Result: -3.00

---

Measure: glass transition temperature (°C)
Give the value, in units of °C, as a plain number.

Example cases with answers are listed next.
- Molecule: "*c1ccc(Oc2ccc(-c3nc4cc5sc(*)nc5cc4s3)cc2)cc1 (repeat unit)"
  glass transition temperature / °C: 350.00
- Molecule: "*c1ccc(Oc2ccc(-n3c(=O)c4c(Oc5ccc(OCCCCCCCCCCCC)cc5)c5c(=O)n(*)c(=O)c5c(Oc5ccc(OCCCCCCCCCCCC)cc5)c4c3=O)cc2)cc1 (repeat unit)"
  glass transition temperature / °C: 218.00
- Molecule: "*c1ccc(Cc2ccc(-n3nc(-c4ccccc4)cc3-c3cccc(-c4cc(-c5ccccc5)nn4*)c3)cc2)cc1 (repeat unit)"
  glass transition temperature / °C: 225.00
- Molecule: "*CC(*)(CC(=O)OC)C(=O)O (repeat unit)"
  glass transition temperature / °C: 159.00
- Molecule: "*c1ccc(Oc2ccc(N3C(=O)c4ccc(Oc5c(Oc6ccc7c(c6)C(=O)N(*)C7=O)cc(C(C)(C)C)cc5C(C)(C)C)cc4C3=O)cc2)cc1 (repeat unit)"
  glass transition temperature / °C: 228.00

Task: Input *C(=O)c1ccc2c(c1)C(=O)N(c1ccc(C(C)(C)c3cccc(C(C)(C)c4ccc(N5C(=O)c6ccc(*)cc6C5=O)cc4)c3)cc1)C2=O (repeat unit) , output reported glass transition temperature.
Result: 316.50

Task: Input *Oc1ccc(S(=O)(=O)c2ccc(Oc3ccc(C4(c5ccc(*)cc5)CCCCC4)cc3)cc2)cc1 (repeat unit) , output reported glass transition temperature.
Result: 226.00

---

Recorded glass transition temperature by entry
Give the value, in units of °C, as a plain number.

Task: Input *O[Si](C)(CCC(F)(F)F)CCC(F)(F)C(F)(F)C(F)(F)C(F)(F)C(F)(F)C(F)(F)C(F)(F)C(F)(F)C(F)(F)C(F)(F)CC[Si](*)(C)CCC(F)(F)F (repeat unit) , output reported glass transition temperature.
Result: -11.00

Task: Input *CCCCCCOC(=O)CCCCCCCCC(=O)O* (repeat unit) , output reported glass transition temperature.
Result: -38.00

Task: Input *CC(*)c1ccc(OC(C)=O)cc1 (repeat unit) [poly(4-acetoxystyrene)] , output reported glass transition temperature.
Result: 121.42

Task: Input *c1ccc2c(c1)C(=O)N(c1cccc(C(=O)Nc3ccc(-c4ccc(NC(=O)c5cccc(N6C(=O)c7ccc(C(*)(C(F)(F)F)C(F)(F)F)cc7C6=O)c5)cc4)cc3)c1)C2=O (repeat unit) , output reported glass transition temperature.
Result: 324.00

Task: Input *C1CC(*)(C#N)C1 (repeat unit) , output reported glass transition temperature.
Result: 220.00

Task: Input *Oc1cccc(NC(=O)c2ccc(P(=O)(c3ccccc3)c3ccc(C(=O)Nc4cccc(Oc5ccc(P(=O)(c6ccccc6)c6ccc(*)cc6)cc5)c4)cc3)cc2)c1 (repeat unit) , output reported glass transition temperature.
Result: 235.00

---

Classification field: T = glass transition temperature at or over 100 °C; F = glass transition temperature under 100 °C.

Would you please look over these solved cases?
- Compound: "*C(=O)c1ccc(Oc2c(C)cc(-c3cc(C)c(Oc4ccc(C(=O)c5ccc6nc(*)ccc6c5)cc4)c(C)c3)cc2C)cc1 (repeat unit)"
  Classification: "T"
- Compound: "*CC(*)(C)C(=O)OCCCCCCOc1ccc(/N=N/c2ccc(C#N)cc2)cc1 (repeat unit)"
  Classification: "F"
- Compound: "*c1ccc(OCCCCCCCCCCCOC(=O)c2ccc(C(=O)OCCCCCCCCCCCOc3ccc(-c4nnc(*)s4)cc3)cc2)cc1 (repeat unit)"
  Classification: "F"
- Compound: "*/C=C/C1CC(*)C2C(=O)N(CCCCCCCCCC)C(=O)C12 (repeat unit)"
  Classification: "F"
- Compound: "*CCCCCCOc1ccc(N(c2ccccc2)c2ccc(-c3ccc(N(c4ccccc4)c4ccc(O*)cc4)cc3)cc2)cc1 (repeat unit)"
  Classification: "F"

Task: Please tell me: is the compound */C=C/c1ccc(*)c(-c2ccc(OCC(CC)CCCC)c3ccccc23)c1 (repeat unit) at or over 100 °C in terms of glass transition temperature?
Result: T

Task: Please tell me: is the compound *O[Si](*)(C)CCCCCCCCCCCOC(=O)c1cc(OC(=O)c2ccc(OCCOCCOCCOCCOCCOCCOCCOCCOC)cc2)ccc1OC(=O)c1ccc(OCCOCCOCCOCCOCCOCCOCCOCCOC)cc1 (repeat unit) at or over 100 °C in terms of glass transition temperature?
Result: F

Task: Please tell me: is the compound *c1ccc(OCC2CCC(COc3ccc(N4C(=O)c5ccc(-c6ccc7c(c6)C(=O)N(*)C7=O)cc5C4=O)cc3)CC2)cc1 (repeat unit) at or over 100 °C in terms of glass transition temperature?
Result: T

Task: Please tell me: is the compound *CC(O)COc1ccc(S(=O)(=O)c2ccc(O*)c(C)c2)cc1C (repeat unit) at or over 100 °C in terms of glass transition temperature?
Result: T

Task: Please tell me: is the compound *c1ccc(C(=O)Nc2ccc(-n3c(=O)c4cc5c(=O)n(*)c(=O)c5cc4c3=O)cc2C(=O)OCC)cc1 (repeat unit) at or over 100 °C in terms of glass transition temperature?
Result: T

Task: Please tell me: is the compound *Oc1ccc(CC(NC(=O)CCc2ccc(OC(=O)CCC(*)=O)cc2)C(=O)OC(C)CC)cc1 (repeat unit) at or over 100 °C in terms of glass transition temperature?
Result: F

Task: Please tell me: is the compound *CC(OC(=O)C(=O)OCC)C(COC(=O)O*)OC(=O)C(=O)OCC (repeat unit) at or over 100 °C in terms of glass transition temperature?
Result: F

Task: Please tell me: is the compound */C(=C(/*)c1ccc[c]([Ge]([CH3])([CH3])[CH3])c1)c1ccccc1 (repeat unit) at or over 100 °C in terms of glass transition temperature?
Result: T

Task: Please tell me: is the compound *Oc1ccc(C2(c3ccc(OC(=O)CCCC(*)=O)cc3)c3cc(N(C)C)ccc3-c3ccc([N+](=O)[O-])cc32)cc1 (repeat unit) at or over 100 °C in terms of glass transition temperature?
Result: T

Task: Please tell me: is the compound *Oc1ccc(CC(NC(=O)CCc2ccc(OC(=O)COCCOCC(*)=O)cc2)C(=O)OCC)cc1 (repeat unit) at or over 100 °C in terms of glass transition temperature?
Result: F
